# System Tested: hFFA3 (Homo sapiens, UniProt O14843)
# Sequence (O14843 1-346): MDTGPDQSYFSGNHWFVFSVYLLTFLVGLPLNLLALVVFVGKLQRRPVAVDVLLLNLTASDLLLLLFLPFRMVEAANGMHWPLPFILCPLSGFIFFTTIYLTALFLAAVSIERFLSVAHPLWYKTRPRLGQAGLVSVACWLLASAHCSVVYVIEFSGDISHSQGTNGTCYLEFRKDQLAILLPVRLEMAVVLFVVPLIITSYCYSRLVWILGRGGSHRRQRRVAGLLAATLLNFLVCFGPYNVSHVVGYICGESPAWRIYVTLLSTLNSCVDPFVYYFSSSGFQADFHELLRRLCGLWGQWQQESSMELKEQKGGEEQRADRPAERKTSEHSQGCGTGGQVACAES
# Assay Overview: cell-based
# Recorded Conditions: read-out: EC50 (cAMP assay); hFFA3
In this section, each of the compounds is paired with its reported pEC50.
Field pEC50 (float): negative decimal logarithm of the concentration in molar.

Before answering, review these 2 worked examples.
CC1=C(C(=O)Nc2cc(Cl)ccc2Cl)C(C2CCCC2)C2=C(CCCC2=O)N1 (stereo not shown); 6.79
CC1=C(C(=O)Nc2ccccc2C)C(C2CCCC2)C2=C(CCCC2=O)N1 (stereo not shown); 6.54

compound CCCC1C(C(=O)Nc2cc(Cl)ccc2Cl)=C(C)NC2=C1C(=O)CCC2 (stereo not shown) , pEC50 observed: 6.84

compound CC1=C(C(=O)Nc2ccccc2C)C(C2CC2)C2=C(CCCC2=O)N1 (stereo not shown) , pEC50 observed: 6.22

====

# System Tested: hFFA3 (Homo sapiens, UniProt O14843)
# Assay Overview: cell-based
# Recorded Conditions: hFFA3; compound alone; mean of ≥3 independent experiments ± standard error
Decision: cAMP pEC50 >= 5 yields 1, all other cases yield 0.

Record excerpt, results attached:
CC1=C(C(=O)Nc2ccccc2C)C(c2cccc(C(F)(F)F)c2)C2=C(CCCC2=O)N1 (centres unmarked); 1
CC1=C(C(=O)Nc2ccccc2C)C(c2cccn2C)C2=C(CCCC2=O)N1 (centres unmarked); 0
CC1=C(C(=O)Nc2ccccc2C)C(c2ccc(C)cc2)C2=C(CCCC2=O)N1 (centres unmarked); 1
CC1=C(C(=O)Nc2ccccc2C)C(C2CCCC2)C2=C(CCCC2=O)N1 (centres unmarked); 1

Request: Would you say CCCC1C(C(=O)Nc2cccc(Cl)c2)=C(C)NC2=C1C(=O)CCC2 (centres unmarked) shows cAMP pEC50 at minimum 5?
Result: 1

====

In this section, each of the compounds is paired with its reported logD.
# Assay Overview: log D7.4 measurement
# Assay type: physicochemical
# Recorded Conditions: pH 7.4; read-out: logD7.4
Just the number, please.

Before answering, review these 2 worked examples.
CC1=C(C(=O)Nc2ccccc2C)C(c2ccco2)C2=C(CCCC2=O)N1 (stereo not shown) [Compound 1, reference compound]; 2.05
CCCC1C(C(=O)Nc2ccccc2C)=C(C)NC2=C1C(=O)CCC2 (stereo not shown); 2.64

From here, focus on the item given below.
compound CC1=C(C(=O)Nc2cc(Cl)ccc2Cl)C(c2ccco2)C2=C(CCCC2=O)N1 (stereo not shown) [Compound 16, reference compound] , logD observed: 3.19

====

# System Tested: hFFA3 (Homo sapiens)
# Assay Overview: cell-based
# Recorded Conditions: hFFA3; compound alone; mean of ≥3 independent experiments ± standard error
We label by threshold. Values of cAMP pEC50 strictly beneath 6 are Met. Values of 6 and up are Not met.

Record excerpt, results attached:
CC1=C(C(=O)Nc2ccccc2)C(c2ccco2)C2=C(CCCC2=O)N1 (centres unmarked); Met
CC1=C(C(=O)Nc2cccc(C)c2C)C(CC(C)C)C2=C(CCCC2=O)N1 (centres unmarked); Met
CC1=C(C(=O)Nc2ccccc2C)C(c2ccoc2)C2=C(CCCC2=O)N1 (centres unmarked) [Compound 2, reference compound]; Not met

Next:
Request: Given CC1=C(C(=O)Nc2cc(Cl)ccc2Cl)C(c2ccco2)C2=C(CCCC2=O)N1 (centres unmarked) [Compound 16, reference compound] , is recorded cAMP pEC50 strictly lower than 6?
Result: Not met
